For each of the compounds below, state its pIC50.
Biological target: His-tagged recombinant human Gal-3 (hGal-3) (Homo sapiens (Human), UniProt P17931)
Sequence (P17931 whole entry): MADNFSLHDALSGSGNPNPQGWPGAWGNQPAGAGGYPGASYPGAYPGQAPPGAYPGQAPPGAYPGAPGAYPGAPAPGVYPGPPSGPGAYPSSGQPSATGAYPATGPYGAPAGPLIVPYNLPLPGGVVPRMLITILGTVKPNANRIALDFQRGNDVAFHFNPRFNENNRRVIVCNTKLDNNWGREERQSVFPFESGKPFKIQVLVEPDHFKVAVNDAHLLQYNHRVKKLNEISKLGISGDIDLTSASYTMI
Experiment: Gal-3 HTRF assay (His-tagged hGal-3 binding to B-ASF)
Conditions: read-out: hGal IC50
# pIC50: negative log10 of molar concentration; output just the value

Kindly note the recorded pIC50 for Cc1nc([C@@H]2O[C@H](CO)[C@H](O)[C@H](n3cc(-c4cc(F)c(Cl)c(F)c4)nn3)[C@H]2O)n(-c2ccc3nc(C)sc3c2)n1 [Example A36] , which is 7.28

Kindly note the recorded pIC50 for COc1ccc(C(F)(F)F)c(-n2nc(C)nc2[C@@H]2O[C@H](CO)[C@H](O)[C@H](n3cc(-c4cc(F)c(Cl)c(F)c4)nn3)[C@H]2O)c1 [Example A64] , which is 7.38

Kindly note the recorded pIC50 for Cc1nc([C@@H]2O[C@H](CO)[C@H](O)[C@H](n3cc(-c4ncc(Cl)cc4Cl)nn3)[C@H]2O)n(-c2cc(Cl)ccc2C(F)(F)F)n1 [Example A62] , which is 6.76

Kindly note the recorded pIC50 for Cc1nc([C@@H]2O[C@H](CO)[C@H](O)[C@H](n3cc(-c4cc(F)c(Cl)c(F)c4)nn3)[C@H]2O)n(-c2cc(Cl)cc3ccncc23)n1 [Example A37] , which is 7.29

Kindly note the recorded pIC50 for Cc1nc([C@@H]2O[C@H](CO)[C@H](O)[C@H](n3cc(-c4cc(F)c(Br)c(F)c4)nn3)[C@H]2O)n(-c2ccc3ncsc3c2)n1 [Example A29] , which is 7.57

Kindly note the recorded pIC50 for Cc1nc([C@@H]2O[C@H](CO)[C@H](O)[C@H](n3cc(-c4ccc(Br)c(F)c4)nn3)[C@H]2O)n(-c2cc(Cl)cnc2C(F)(F)F)n1 [Example A71] , which is 7.31

###

Target: His-tagged recombinant human Gal-3 (hGal-3) (Homo sapiens (Human), UniProt P17931)
Experiment: Gal-3 HTRF assay (His-tagged hGal-3 binding to B-ASF);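 also: compounds preincubated 30 min with hGal-3, then 1 h with B-ASF, detection via terbium anti-His antibody and streptavidin d2. Control with B-ASF counts as full signal, omitting B-ASF as background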
Settings: HTRF, hGal-3 15 nM, B-ASF 15 nM; read-out: hGal-3 IC50
For each of the compounds below, state its IC50.
Give just the number in nM; leave the unit off.

IC50 on His-tagged recombinant human Gal-3 (hGal-3) (Homo sapiens (Human), UniProt P17931) for "OC[C@H]1O[C@@H](n2nncc2-c2ccc(Cl)cc2)[C@H](O)[C@@H](n2cc(-c3cc(F)c(F)c(F)c3)nn2)[C@H]1O" is 329

IC50 on His-tagged recombinant human Gal-3 (hGal-3) (Homo sapiens (Human), UniProt P17931) for "Cc1nnc(NS(=O)(=O)c2ccc(-n3cnnc3[C@@H]3O[C@H](CO)[C@H](O)[C@H](n4cc(-c5cc(F)c(F)c(F)c5)nn4)[C@H]3O)cc2)s1" is 1550

IC50 on His-tagged recombinant human Gal-3 (hGal-3) (Homo sapiens (Human), UniProt P17931) for "COc1ccc(Cl)cc1-n1ncnc1[C@H]1C[C@@H](n2cc(-c3cc(F)c(F)c(F)c3)nn2)[C@@H](O)[C@@H](CO)O1" is 210

###

Molecular target: His-tagged recombinant human Gal-3 (hGal-3) (Homo sapiens (Human))
Assay: Gal-3 HTRF assay (His-tagged hGal-3 binding to B-ASF)
Settings: read-out: hGal3 IC50
MEASURED_ATTRIBUTE: pIC50
# pIC50: negative log10 of molar concentration; output just the value

Kindly note the recorded pIC50 for "Cc1nc2ccc(-n3ncnc3[C@@H]3O[C@H](CO)[C@H](O)[C@H](n4cc(-c5cc(F)cc(C(F)(F)F)c5)nn4)[C@H]3O)cc2s1" , which is 6.38

Kindly note the recorded pIC50 for "Cc1nc2ccc(-n3ncnc3[C@@H]3O[C@H](CO)[C@H](O)[C@H](n4cc(-c5ccc(Br)c(F)c5)nn4)[C@H]3O)cc2s1" , which is 7.30

Kindly note the recorded pIC50 for "Cc1nc2cc(-c3cn([C@H]4[C@@H](O)[C@@H](CO)O[C@@H](c5ncnn5-c5ccc6nc(C)sc6c5)[C@@H]4O)nn3)cc(F)c2o1" , which is 6.60

Kindly note the recorded pIC50 for "Cc1nc([C@@H]2O[C@H](CO)[C@H](O)[C@H](n3cc(-c4ccc(Cl)c(F)c4)nn3)[C@H]2O)n(-c2cc(Cl)ccc2Cl)n1" , which is 7.52

Kindly note the recorded pIC50 for "OC[C@H]1O[C@@H](c2nncn2-c2cc(Cl)ccc2Cl)[C@H](O)[C@@H](n2cc(-c3ccc(Cl)c(F)c3)nn2)[C@H]1O" , which is 7.17

Kindly note the recorded pIC50 for "CCOC(=O)Nc1cc(-c2cn([C@H]3[C@@H](O)[C@@H](CO)O[C@@H](c4ncnn4-c4ccc5nc(C)sc5c4)[C@@H]3O)nn2)cc(F)c1F" , which is 7.15

Kindly note the recorded pIC50 for "Cc1nc2ccc(-n3c([C@@H]4O[C@H](CO)[C@H](O)[C@H](n5cc(-c6ccc(Br)c(F)c6)nn5)[C@H]4O)nnc3C(F)(F)F)cc2s1" , which is 6.01

Kindly note the recorded pIC50 for "Cc1nc2ccc(-n3ncnc3[C@@H]3O[C@H](CO)[C@H](O)[C@H](n4cc(-c5ccc(Cl)c(Cl)c5)nn4)[C@H]3O)cc2s1" , which is 7.22

Kindly note the recorded pIC50 for "COc1cc(F)c(F)cc1-c1cn([C@H]2[C@@H](O)[C@@H](CO)O[C@@H](c3ncnn3-c3ccc4nc(C)sc4c3)[C@@H]2O)nn1" , which is 6.62

Kindly note the recorded pIC50 for "CO[C@@H]1[C@@H](n2cc(-c3cc(F)c(F)c(F)c3)nn2)[C@@H](O)[C@@H](CO)O[C@H]1c1nncn1-c1ccc(Cl)c(Cl)c1" , which is 7.10

Kindly note the recorded pIC50 for "Cc1nc([C@@H]2O[C@H](CO)[C@H](O)[C@H](n3cc(-c4ccc(Cl)c(F)c4)nn3)[C@H]2O)n(-c2ccc3ncsc3c2)n1" , which is 7.10

Kindly note the recorded pIC50 for "Cc1nc2ccc(-n3ncnc3[C@@H]3O[C@H](CO)[C@H](O)[C@H](n4cc(-c5cc(F)c(C#N)cc5C)nn4)[C@H]3O)cc2s1" , which is 6.41

Kindly note the recorded pIC50 for "COc1ccc(Cl)cc1-n1nc(C)nc1[C@@H]1O[C@H](CO)[C@H](O)[C@H](n2cc(-c3ccc(Cl)c(F)c3)nn2)[C@H]1O" , which is 7.10

Kindly note the recorded pIC50 for "CO[C@@H]1[C@@H](n2cc(-c3cc(F)c(Cl)c(F)c3)nn2)[C@@H](O)[C@@H](CO)O[C@H]1c1nncn1-c1cc(Cl)ccc1C(F)(F)F" , which is 7.66

Kindly note the recorded pIC50 for "Cc1nc2ccc(-n3ncnc3[C@@H]3O[C@H](CO)[C@H](O)[C@H](n4cc(-c5ccc(Cl)c(F)c5)nn4)[C@H]3O)cc2s1" , which is 7.15

Kindly note the recorded pIC50 for "Cc1nnc([C@@H]2O[C@H](CO)[C@H](O)[C@H](n3cc(-c4cc(F)c(Br)c(F)c4)nn3)[C@H]2O)n1-c1cc(Cl)ccc1C(F)(F)F" , which is 8.06

Kindly note the recorded pIC50 for "Cc1nc2ccc(-n3c([C@@H]4O[C@H](CO)[C@H](O)[C@H](n5cc(-c6cc(F)c(Br)c(F)c6)nn5)[C@H]4O)nnc3C(F)(F)F)cc2s1" , which is 7.24

Kindly note the recorded pIC50 for "Cc1nc2ccc(-n3c([C@@H]4O[C@H](CO)[C@H](O)[C@H](n5cc(-c6cc(F)c(F)c(F)c6)nn5)[C@H]4O)nnc3C(F)(F)F)cc2s1" , which is 7.30

Kindly note the recorded pIC50 for "CO[C@@H]1[C@@H](n2cc(-c3cc(F)c(Cl)c(F)c3)nn2)[C@@H](O)[C@@H](CO)O[C@H]1c1nnc(C)n1-c1cc(Cl)ccc1C(F)(F)F" , which is 7.66

Kindly note the recorded pIC50 for "Cc1nnc([C@@H]2O[C@H](CO)[C@H](O)[C@H](n3cc(-c4cc(F)c(Br)c(F)c4)nn3)[C@H]2O)n1-c1cc(Cl)cc2cccnc12" , which is 7.96

Kindly note the recorded pIC50 for "Cc1nc([C@H]2C[C@@H](n3cc(-c4cc(F)c(Cl)c(F)c4)nn3)[C@@H](O)[C@@H](CO)O2)n(-c2ccc3ncsc3c2)n1" , which is 7.52

Kindly note the recorded pIC50 for "Cc1nc2ccc(-n3ncnc3[C@@H]3O[C@H](CO)[C@H](O)[C@H](n4cc(-c5ccc(Cl)cc5)nn4)[C@H]3O)cc2s1" , which is 6.68

Kindly note the recorded pIC50 for "Cc1nnc([C@@H]2O[C@H](CO)[C@H](O)[C@H](n3cc(-c4cc(F)c(Cl)c(F)c4)nn3)[C@H]2O)n1-c1cc(Cl)cc2cccnc12" , which is 7.85
